Experiment: molar heat capacity at constant pressure
Conditions: 310 K; 101.33 kPa; Crystal; Small sample (50 mg) DSC
molar heat capacity at constant pressure values for the compounds below.
Supply the numeric figure in J/K/mol, leaving out any unit text.

Example entries and their recorded answers appear below.
[[record]]
compound = "O[C@H]1[C@H](O)[C@@H](O)[C@H](O)[C@@H](O)[C@H]1O [cis-1,2,3,5-trans-4,6-cyclohexanehexol]"
measured_endpoint = "molar heat capacity at constant pressure"
readout_units = "J/K/mol"
test_result = 228.25

[[record]]
compound = "OC[C@@H](O)[C@@H](O)CO"
measured_endpoint = "molar heat capacity at constant pressure"
readout_units = "J/K/mol"
test_result = 172.33

[[record]]
compound = "OC[C@H](O)C(O)[C@@H](O)CO [L-(-)-arabitol]"
measured_endpoint = "molar heat capacity at constant pressure"
readout_units = "J/K/mol"
test_result = 217.12

[[record]]
compound = "OC[C@@H](O)C(O)[C@H](O)CO"
measured_endpoint = "molar heat capacity at constant pressure"
readout_units = "J/K/mol"
test_result = 210.77

[[record]]
compound = "OC[C@@H](O)[C@@H](O)[C@H](O)[C@H](O)CO"
measured_endpoint = "molar heat capacity at constant pressure"
readout_units = "J/K/mol"
test_result = 241.08


The recorded molar heat capacity at constant pressure for `OC[C@@H](O)[C@H](O)[C@@H](O)CO` is 219.82

---

Assay: molar heat capacity at constant pressure
Settings: 245.15 K; 101.33 kPa; Crystal; Small sample (50 mg) DSC
Numbers after ± are expanded uncertainties.
measured.endpoint: molar heat capacity at constant pressure

Example entries and their recorded answers appear below.
[[record]]
compound = "O[C@H]1[C@H](O)[C@@H](O)[C@H](O)[C@@H](O)[C@H]1O [cis-1,2,3,5-trans-4,6-cyclohexanehexol]"
measured_endpoint = "molar heat capacity at constant pressure"
test_result = "177.49 ± 25 J/K/mol"

[[record]]
compound = "OC[C@@H](O)[C@@H](O)CO [meso-1,2,3,4-butanetetrol]"
measured_endpoint = "molar heat capacity at constant pressure"
test_result = "136.33 ± 16 J/K/mol"

[[record]]
compound = "OC[C@@H](O)[C@H](O)[C@@H](O)CO [xylitol]"
measured_endpoint = "molar heat capacity at constant pressure"
test_result = "171.35 ± 11 J/K/mol"

[[record]]
compound = "OC[C@H](O)C(O)[C@@H](O)CO [L-(-)-arabitol]"
measured_endpoint = "molar heat capacity at constant pressure"
test_result = "169.35 ± 34 J/K/mol"


The recorded molar heat capacity at constant pressure for OC[C@@H](O)[C@@H](O)[C@H](O)[C@H](O)CO [D-mannitol] is 190.77 ± 31 J/K/mol

The recorded molar heat capacity at constant pressure for OC[C@@H](O)C(O)[C@H](O)CO [D-arabitol] is 164.33 ± 13 J/K/mol

---

Test: molar heat capacity at constant pressure
Details: 273.15 K; 101.33 kPa; Crystal; Small sample (50 mg) DSC
Quick rule: molar heat capacity at constant pressure of at least 200 J/K/mol means rule met, below that means rule not met.

[[record]]
compound = "OC[C@@H](O)[C@@H](O)[C@H](O)[C@H](O)CO"
class_name = "rule met"

[[record]]
compound = "OC[C@@H](O)[C@@H](O)CO"
class_name = "rule not met"

[[record]]
compound = "OC[C@@H](O)C(O)[C@H](O)CO"
class_name = "rule not met"

[[record]]
compound = "OC[C@H](O)C(O)[C@@H](O)CO [L-(-)-arabitol]"
class_name = "rule not met"


Query block: Threshold query (molar heat capacity at constant pressure >= 200 J/K/mol) on `OC[C@@H](O)[C@H](O)[C@@H](O)CO`
Result block: rule not met
